Every entry's value here was drawn from paper PMC5581314.

Molecular target: LipA (Acinetobacter baumannii, UniProt A0ABX6CKD6)
Construct: gene lip; secreted LipA from plasmid-encoded lipBA, in culture supernatant
Test: 4-nitrophenyl myristate lipase assay; IC50 in whole culture, direct inhibition by cell-free supernatant counter-screen
Assay type: cell-based
This section presents molecules with their documented pIC50 values.
Conceptually, pIC50 converts a concentration in mol/L into minus its log10.

[
  {
    "smiles.representation": "CNCCCN1c2ccccc2CCc2ccccc21",
    "numeric.result": 4.78
  }
]

Next molecule, pIC50 to be filled in.
# input Which value of pIC50 has been reported for `CCCCCCCCCCC[C@@H](C[C@@H]1OC(=O)[C@H]1CCCCCC)OC(=O)[C@H](CC(C)C)NC=O` in the records?
# output 7.39
